This collection of values is drawn from PubChem BioAssay (NCI).

System: CCRF-CEM leukemia
protocol: NCI tumour cell line growth inhibition, 48 h
experimental_endpoint: TGI

compound	observed_result
COc1nc(-c2c[nH]c3ccccc23)cnc1N	14.8 µM
O=c1n(-c2ccc(Cl)c(Cl)c2)c(=O)n(-c2ccc(Cl)c(Cl)c2)c(=O)n1-c1ccc(Cl)c(Cl)c1	4.5 µM
Clc1ccc(-c2nnc3c4nnc(-c5ccc(Cl)cc5Cl)n4c4ccccc4n23)c(Cl)c1	> 100 µM
C[C@H]1[C@H](N2CCCC2)O[Si](C(C)(C)C)(C(C)(C)C)[C@@H]1C	> 100 µM
CCOC(=O)C1OC(=O)CC1C1(C(=O)OCC)C=CC(=O)O1 (centres undefined)	> 100 µM

Look at this compound and give its reported TGI. Cc1cn(C2CC(OC3CCCCO3)C(CO)O2)c(=O)[nH]c1=O (centres undefined)
> 100 µM

Which TGI value is on record for CC(=O)OCC1OC(N2C(=O)NC(=O)C3C=C4CCCCC4=CC32)C(OC(C)=O)C1OC(C)=O (centres undefined) ?
> 100 µM

What value of TGI has been recorded for this entry: O=C1C[C@@H](Sc2ccccc2)C2(OCCO2)C2ON3CCCC[C@H]3[C@H]12 (some centres undefined)
4.71 µM

// returns reported TGI for input "CCOC(=O)O/C(=C\c1ccc(OC)cc1)c1c(OC(=O)OCC)n(C(=O)OCC)c2ccccc12"
> 100 µM

---

Tested on: M14 melanoma
protocol: NCI tumour cell line growth inhibition, 48 h
This section presents molecules with their documented TGI values.

molecule	TGI
O=C(Cc1cc[n+]([O-])cc1)C(=O)Nc1cc(Cl)c(Cl)cc1Cl	> 100 µM
O=c1n(-c2ccc(Cl)c(Cl)c2)c(=O)n(-c2ccc(Cl)c(Cl)c2)c(=O)n1-c1ccc(Cl)c(Cl)c1	13.1 µM
COc1cc(-c2nccn2-c2ccc3ccccc3c2)cc(OC)c1OC	12.7 µM

Which TGI value is on record for "C=CCN1C(=O)c2cccc3c(N4CCOCC4)ccc(c23)C1=O" ?
> 100 µM

What value of measured TGI is listed for "c1ccc2c(c1)c1c(n2CCOCCCN2CCCCC2)CCCC1" ?
> 100 µM

If you can, please state the reported TGI value of "COc1cc(/C=C(\NC(=O)c2ccccc2)c2nc3[nH]c(=S)[nH]c(=O)c3[nH]2)cc(OC)c1OC" .
> 100 µM

Request the reported TGI associated with "C/C=C(/C)C(=O)O[C@H]1CCN2CC=C(COC(=O)[C@@](O)([C@H](C)OC)C(C)(C)O)[C@H]12"
> 100 µM

Query (molecule): C=C1CC2(CC(c3ccccc3OC)OC(c3ccccc3OC)C2)OC1=O (stereo not drawn) ; field requested: TGI
3.35 µM

---

Test system: SN12C renal
protocol: NCI tumour cell line growth inhibition, 48 h
Reported TGI values for the following compounds.
A number alone suffices; assume µM.

compound	TGI / µM
O=C1/C(=C\c2cccc(Oc3ccccc3)c2)SC(c2ccccc2)N1c1ccccc1Cl (centres undefined)	96.9
COC(=O)C1=C(O)C(C(=O)OC)[C@@]2(O)[C@@H](C(=O)OC)C(c3ccc(OC(=O)/C=C/c4ccccc4)cc3)C[C@@H]1[C@@H]2C(=O)OC (some centres undefined)	27.3
Clc1ccc2c(N3CCN(c4ccnc(NC5CCCCC5)n4)CC3)ccnc2c1	3.6
Cc1ccc(N=C2SC(=S)N(CCC[N+](C)(C)C)C2=Nc2ccc(C)cc2)cc1	29.5
COc1cccc(C2=C(c3cn(C)c4ccc(Cl)cc34)C(=O)NC2=O)c1	14.2

Fill blank: measured TGI of the compound "COC(=O)c1oc([N+](=O)[O-])c(Cl)c1Cl" is ____.
14.2

---

Test system: XF 498 CNS
protocol: NCI tumour cell line growth inhibition, 48 h
experimental_endpoint: TGI

Consider the reported TGI for these compounds:
compound	TGI
C[CH2][Sn]([CH2]C)([O]C(=O)c1ccccc1F)[O]C(=O)c1ccccc1F	30.6 µM
Cc1cn(C2CC(OC3CCCCO3)C(CO)O2)c(=O)[nH]c1=O (stereo not drawn)	> 100 µM
CC1CC[C@@]23CCC4(C)[C@@](C=CC5[C@@]6(C)CCC(=O)C(C)(C)C6CC[C@]54C)(OC2=O)[C@@H]3[C@H]1C (stereo partly drawn)	34.2 µM
COC(c1ccccc1)C(c1ccccc1)N1CCOCC1 (stereo not drawn)	> 100 µM
CC/C=C\C/C=C\C/C=C\CCCCCCCC(=O)OC	> 100 µM
CC1(C)CC(C)(C)CC(O)(C2(O)CC(C)(C)CC(C)(C)C2)C1	> 100 µM

Requested read-out TGI, target or system XF 498 CNS, entry "C[C@H](C(=O)C12CC3CC(CC(C3)C1)C2)[C@H](O)c1ccccc1"
67.7 µM

Query the reported TGI for XF 498 CNS; item: "Cc1cc(C(=O)NCCN(C)C)c2nc3ccccc3cc2c1"
3.69 µM

---

Test system: SN12C renal
protocol: NCI tumour cell line growth inhibition, 48 h
experimental_endpoint: TGI

compound	TGI
CN=c1ssc(/N=C(\SC)N(C)C)[n+]1C	> 100 µM

Please state recorded TGI (tested on SN12C renal) of "Cn1c(=O)c2c(nc3n(Cc4ccccc4)c(=O)c(Br)cn23)n(C)c1=O"
> 100 µM

Find the measured TGI: item "O=C(C[n+]1cccc2cc(Cl)ccc21)c1ccc2c(c1)CCCC2" , target or system SN12C renal.
3.04 µM

GET /values?readout=TGI&system=SN12C renal&item= COC(c1ccccc1)C(c1ccccc1)N1CCOCC1 (stereo not given)
> 100 µM

Notebook: pull reported TGI for SN12C renal, entry "COc1ccc2[nH]c3c(C)c4ccncc4c(C)c3c2c1"
2.54 µM

Form entry - test system: SN12C renal; read-out: TGI; compound: "CCOC(=O)C(COS(C)(=O)=O)(COS(C)(=O)=O)C(=O)OCC"
> 100 µM

Quick check: TGI on SN12C renal, item "S=C(S)NCCNC(=S)S.[Cu+2]" ?
> 100 µM

# query: TGI | item COc1ccccc1N1C(=O)CSC1c1c[nH]c2ccccc12 (stereo not given) | system: SN12C renal
> 100 µM

Fill in the recorded TGI for this compound, with SN12C renal as test system: "NC1=NC(=O)[C@H](Cc2c[nH]c3ccccc23)N1C(=O)OCc1ccccc1"
> 100 µM

# query: TGI | item "CCC(=O)Nc1ccc(NCC(=O)Nc2ccc(Cl)cc2)cc1" | system: SN12C renal
35.3 µM

---

Tested on: RXF 393 renal
protocol: NCI tumour cell line growth inhibition, 48 h
Where a SMILES comes first, the peptide text is derived from it. [ ]: non-standard residue; d: D form.
experimental_endpoint: TGI

Known TGI results, listed for orientation:
compound	TGI
CC(=O)OCC1OC(N2C(=O)NC(=O)C3C=C4CCCCC4=CC32)C(OC(C)=O)C1OC(C)=O (centres undefined)	> 100 µM
O=C1/C(=C/c2ccco2)N=C(c2ccccc2)N1c1ccc(S(=O)(=O)Nc2nccs2)cc1	> 100 µM
O=c1[nH]nc(-c2ccccc2)n1/N=C\CC/C=N\n1c(-c2ccccc2)n[nH]c1=O	> 100 µM

# input for lookup
I am curious: what TGI value has been reported for NC(N)=NCCC[C@H]1NC(=O)[C@@H](CCC(=O)O)NC(=O)[C@@H](CC(=O)O)NC(=O)[C@@H](CCC(=O)O)NC(=O)[C@H](Cc2c[nH]c3ccccc23)NC1=O (cyclo(W[dE][dD][dE][dR])) ?
> 7.5 µM

---

Test system: HOP-92 NSCLC
protocol: NCI tumour cell line growth inhibition, 48 h
Entries and their TGI values follow.

Example cases with answers are listed next.
compound	experimental_system	TGI
O=C(Nc1ccc2[nH]c3ccccc3c2c1)c1ccccc1Cl	HOP-92 NSCLC	> 100 µM
CCOC(=O)C(COS(C)(=O)=O)(COS(C)(=O)=O)C(=O)OCC	HOP-92 NSCLC	> 100 µM
OC1CCCN(C2(c3cccs3)CCCCC2)C1 (centres undefined)	HOP-92 NSCLC	> 100 µM

Under HOP-92 NSCLC: TGI value of "O=c1[nH]cnc2c1sc(=S)n2-c1ccccc1" ?
> 100 µM

---

System: MDA-MB-231 breast
protocol: NCI tumour cell line growth inhibition, 48 h; in the data active means GI50 below about 0.43 µM; inactive means the rest
Please reply with one of these outcomes: active, inactive

Take a look at these entries with their results.
compound	category
CCCCC(CCCCCC(CCCC)C1NC(C)Cc2cc(OC)c(OC)cc21)C1NC(C)Cc2cc(OC)c(OC)cc21 (stereo unspecified)	inactive
S=C(S)NCCNC(=S)S.[Cu+2]	inactive

What did this assay record as the result for "CN[C@@H](C)C(=O)N[C@H]1CCS[C@H]2CC(C)(C)[C@@H](C(=O)N[C@H]3c4ccccc4C[C@H]3OCC#CC#CCO[C@@H]3Cc4ccccc4[C@@H]3NC(=O)[C@H]3N4C(=O)[C@@H](NC(=O)[C@H](C)NC)CCS[C@H]4CC3(C)C)N2C1=O" ?
active

// param item: "COc1cc(Nc2ccnc(NCCNc3ccnc4cc(Cl)ccc34)n2)cc(OC)c1" ; yields the recorded call
inactive

Outcome logged for "Clc1ccc2c(N3CCN(c4ccnc(NC5CCCCC5)n4)CC3)ccnc2c1" in this assay:
inactive

Outcome logged for "OCCCCC#Cc1ccccc1C#Cc1ccccn1" in this assay:
inactive
